- Test system: third instar T. ni larvae
- assay_procedure: Leaf disk choice feeding deterrence bioassay
- Type: in vivo, Trichoplusia ni
- details: Trichoplusia, foliar, Table 8; 50 μg/cm^2; read-out: F.D (%) Mean ± SE N = 25
pest or weed control at 50 µg/cm2, 50 µg/cm2 overview
Use % as the unit, but write only the number.

Here's what some known entries look like.
C=CCOc1ccc(OC)cc1 [3c{1, 6}, 1-allyloxy-4-methoxybenzene]: 62
C=CCOc1ccc(OCC)cc1 [3c{2, 6}, 1-allyloxy-4-ethoxybenzene]: 73
COc1cccc(OCCC(C)C)c1 [3b{1, 5}, 1-methoxy-3-(3-methyl-butyloxy)benzene]: 89
CCCOc1cccc(OCCC(C)C)c1 [3b{3, 5}, 3-propoxy-1-isopentoxybenzene]: 97

# input Would you mind telling me what pest or weed control at 50 µg/cm2, 50 µg/cm2 value was observed for C=CCOc1ccccc1OCCCC [3a{4, 6}, 1-allyloxy-2-butoxybenzene] ?
# output 92

# input Would you mind telling me what pest or weed control at 50 µg/cm2, 50 µg/cm2 value was observed for CCCOc1ccc(OCC)cc1 [3c{2, 3}, 4-ethoxy-1-propoxybenzene] ?
# output 100

# input Would you mind telling me what pest or weed control at 50 µg/cm2, 50 µg/cm2 value was observed for CCCCOc1ccccc1OCCC [3a{3, 4}, 1-propoxy-2-butoxybenzene] ?
# output 98

# input Would you mind telling me what pest or weed control at 50 µg/cm2, 50 µg/cm2 value was observed for C=CCOc1cccc(OC)c1 [3b{1, 6}, 1-allyloxy-3-methoxybenzene] ?
# output 66

# input Would you mind telling me what pest or weed control at 50 µg/cm2, 50 µg/cm2 value was observed for C=CCOc1cccc(OCC=C)c1 [3b{6, 6}, 1,3-Diallyloxy benzene] ?
# output 97

# input Would you mind telling me what pest or weed control at 50 µg/cm2, 50 µg/cm2 value was observed for C=CCOc1ccccc1OCCC [3a{3, 6}, 1-allyloxy-2-propoxybenzene] ?
# output 96

# input Would you mind telling me what pest or weed control at 50 µg/cm2, 50 µg/cm2 value was observed for C=CCOc1ccc(OCCC)cc1 [3c{3, 6}, 1-allyloxy-4-propoxybenzene] ?
# output 100

###

- Test system: third instar T. ni larvae
- assay_procedure: whole plant or invertebrate
- details: Trichoplusia, topical, 24 h, read-out: mortality (%) (n = 3 × 10), Table 3; at 0.25%, 24 h
quantity_kind: mortality at 0.25 %

CCCOc1ccc(OCCC)cc1: 22.6%
C=CCOc1ccc(OCC=C)cc1: 16%
CCOc1ccc(OCC)cc1: 100%
C=CCOc1ccc(OCCC(C)C)cc1: 7%

# input Would you mind telling me what mortality at 0.25 % value was observed for C=CCOc1ccc(OCCCC)cc1 ?
# output 10%

###

- Tested on: T. ni moths
- assay_procedure: Oviposition choice (deterrence) bioassay on cabbage leaves
- Type: in vivo, Trichoplusia ni
- details: Trichoplusia, 48 h, Table 8; at 0.25%; read-out: OD (%) Mean ± SE N = 35-40
quantity_kind: pest or weed control at 0.25 %

Here's what some known entries look like.
C=CCOc1cccc(OCC=C)c1 [3b{6, 6}, 1,3-Diallyloxy benzene]: 25 to 30%
C=CCOc1ccc(OCCC)cc1 [3c{3, 6}, 1-allyloxy-4-propoxybenzene]: < 30%
C=CCOc1ccc(OCC)cc1 [3c{2, 6}, 1-allyloxy-4-ethoxybenzene]: < 30%

Kindly consider the entry below.
# input Would you mind telling me what pest or weed control at 0.25 % value was observed for COc1cccc(OCCC(C)C)c1 [3b{1, 5}, 1-methoxy-3-(3-methyl-butyloxy)benzene] ?
# output 25 to 30%

Where do these numbers come from? They come from patent US9125406B2.
